DC50 for assorted compounds
molecular target: HiBiT-BRM (Homo sapiens); construct: expressed in transfected cells; assay: HiBiT-BRM cell-based degradation assay (Nano-Glo HiBiT Lytic Detection); conditions: HeLa cells expressing HiBiT-BRM, 24 h; read-out: BRM HiBit Degradation IC50
Measured Attribute: DC50

1. Cc1ncsc1-c1ccc(CNC(=O)[C@@H]2C[C@@H](O)CN2C(=O)[C@@H](NC(=O)CCCCCCCCCCCCC(=O)NCc2ccc(CCOc3cc(-c4ccccc4O)nnc3N)cc2)C(C)(C)C)cc1 = > 10 nM
2. CN(Cc1ccc(CCOc2cc(-c3ccccc3O)nnc2N)cc1)C(=O)CCCCOc1cccc2c1C(=O)N(C1CCC(=O)NC1=O)C2=O (centres unmarked) = > 1000 nM
3. Cc1ncsc1-c1ccc(CNC(=O)[C@@H]2C[C@@H](O)CN2C(=O)[C@@H](NC(=O)CCCCCCCCCCC(=O)NCc2ccc(CCOc3cc(-c4ccccc4O)nnc3N)cc2)C(C)(C)C)cc1 = > 100 nM
4. Cc1ncsc1-c1ccc([C@H](C)NC(=O)[C@@H]2C[C@@H](O)CN2C(=O)[C@@H](NC(=O)CCCCCCCCCCCCCCNC(=O)c2ccc(CCOc3cc(-c4ccccc4O)nnc3N)cc2)C(C)(C)C)cc1 = > 10 nM
5. Nc1nnc(-c2ccccc2O)cc1OCCc1ccc(CNC(=O)COc2cccc3c2C(=O)N(C2CCC(=O)NC2=O)C3=O)cc1 (centres unmarked) = > 1000 nM
6. Cc1ncsc1-c1ccc(CNC(=O)[C@@H]2C[C@H](O)CN2C(=O)[C@@H](NC(=O)CCCCCCCCCNC(=O)c2ccc(CCOc3cc(-c4ccccc4O)nnc3N)cc2)C(C)(C)C)cc1 = > 1000 nM
7. CN(CCCCCNc1ccc2c(c1)C(=O)N(C1CCC(=O)NC1=O)C2=O)Cc1ccc(CCOc2cc(-c3ccccc3O)nnc2N)cc1 (centres unmarked) = > 1000 nM
8. Cc1ncsc1-c1ccc(CNC(=O)[C@@H]2C[C@@H](O)CN2C(=O)[C@@H](NC(=O)CCCCCCCCCNC(=O)c2ccc(CCOc3cc(-c4ccccc4O)nnc3N)cc2)C(C)(C)C)cc1 = > 100 nM
9. Nc1nnc(-c2ccccc2O)cc1OCCc1ccc(C(=O)NCCCCCCCC(=O)NCc2ccc(S(=O)(=O)Nc3cccc4c(Cl)c[nH]c34)cc2)cc1 = > 1000 nM
10. Nc1nnc(-c2ccccc2O)cc1N1CCN(CC(=O)NCCCCCNc2ccc3c(c2)C(=O)N(C2CCC(=O)NC2=O)C3=O)CC1 (centres unmarked) = > 1000 nM
11. Nc1nnc(-c2ccccc2O)cc1OCCc1ccc(CNC(=O)CCCCCCCCCNc2ccc3c(c2)C(=O)N(C2CCC(=O)NC2=O)C3=O)cc1 (centres unmarked) = > 1000 nM

----------
target: HiBit-BRG1 (Homo sapiens, UniProt P51532); construct: expressed in transfected cells; assay: HiBit-BRG1 cell-based degradation assay (Nano-Glo HiBiT Lytic Detection); conditions: HeLa cells expressing HiBit-BRG1 and LgBit, 24 h; read-out: BRG1 HiBit Degradation IC50
Sequence (P51532 whole entry): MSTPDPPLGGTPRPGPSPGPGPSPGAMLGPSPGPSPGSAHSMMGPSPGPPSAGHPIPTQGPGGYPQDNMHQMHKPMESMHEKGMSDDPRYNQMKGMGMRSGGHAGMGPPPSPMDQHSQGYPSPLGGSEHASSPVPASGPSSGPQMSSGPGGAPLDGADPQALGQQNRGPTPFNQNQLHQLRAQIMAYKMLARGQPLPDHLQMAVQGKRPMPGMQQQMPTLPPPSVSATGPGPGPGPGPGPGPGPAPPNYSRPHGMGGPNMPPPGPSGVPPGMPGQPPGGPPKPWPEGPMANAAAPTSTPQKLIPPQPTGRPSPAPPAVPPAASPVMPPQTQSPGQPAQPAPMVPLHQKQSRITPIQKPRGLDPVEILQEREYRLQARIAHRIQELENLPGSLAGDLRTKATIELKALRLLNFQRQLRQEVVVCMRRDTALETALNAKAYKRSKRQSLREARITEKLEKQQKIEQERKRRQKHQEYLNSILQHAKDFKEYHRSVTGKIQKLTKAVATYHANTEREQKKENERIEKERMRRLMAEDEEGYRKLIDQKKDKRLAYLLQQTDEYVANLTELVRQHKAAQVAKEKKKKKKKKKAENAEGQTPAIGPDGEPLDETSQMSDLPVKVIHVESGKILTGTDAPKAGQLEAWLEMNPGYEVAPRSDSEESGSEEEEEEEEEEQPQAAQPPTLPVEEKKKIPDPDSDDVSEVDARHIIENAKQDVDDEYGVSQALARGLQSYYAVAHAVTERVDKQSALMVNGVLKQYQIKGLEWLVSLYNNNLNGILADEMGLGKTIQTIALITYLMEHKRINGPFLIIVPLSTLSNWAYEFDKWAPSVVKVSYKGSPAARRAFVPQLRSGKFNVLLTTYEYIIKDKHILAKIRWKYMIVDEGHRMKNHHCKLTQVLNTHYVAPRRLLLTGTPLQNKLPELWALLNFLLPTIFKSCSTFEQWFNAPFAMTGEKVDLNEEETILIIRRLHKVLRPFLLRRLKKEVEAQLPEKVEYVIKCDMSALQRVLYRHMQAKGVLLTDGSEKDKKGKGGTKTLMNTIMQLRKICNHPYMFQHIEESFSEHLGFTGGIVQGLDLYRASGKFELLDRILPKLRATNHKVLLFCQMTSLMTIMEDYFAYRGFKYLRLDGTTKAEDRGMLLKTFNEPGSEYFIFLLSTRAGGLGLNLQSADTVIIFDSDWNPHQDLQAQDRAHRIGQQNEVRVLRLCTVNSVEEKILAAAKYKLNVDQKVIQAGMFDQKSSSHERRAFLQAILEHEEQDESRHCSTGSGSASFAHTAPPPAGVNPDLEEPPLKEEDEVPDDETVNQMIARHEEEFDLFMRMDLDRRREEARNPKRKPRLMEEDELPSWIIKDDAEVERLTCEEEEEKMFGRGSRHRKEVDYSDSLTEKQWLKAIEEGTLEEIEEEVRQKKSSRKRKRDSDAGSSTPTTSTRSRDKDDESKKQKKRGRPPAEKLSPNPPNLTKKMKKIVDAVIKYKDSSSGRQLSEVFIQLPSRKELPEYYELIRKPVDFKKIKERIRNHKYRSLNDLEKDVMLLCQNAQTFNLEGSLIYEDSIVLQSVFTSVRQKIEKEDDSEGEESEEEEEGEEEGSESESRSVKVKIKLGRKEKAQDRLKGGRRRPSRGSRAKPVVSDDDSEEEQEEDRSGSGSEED
Some compounds, each annotated with its measured DC50.
Measured Attribute: DC50

1) Cc1ncsc1-c1ccc(CNC(=O)[C@@H]2C[C@@H](O)CN2C(=O)[C@@H](NC(=O)CCCCCCCCCCC(=O)NCc2ccc(CCOc3cc(-c4ccccc4O)nnc3N)cc2)C(C)(C)C)cc1 [Compound 37] = > 1000 nM
2) Nc1nnc(-c2cccc(Cl)c2O)cc1OCCc1ccc(CNCCCCCOc2cccc3c2C(=O)N(C2CCC(=O)NC2=O)C3=O)cc1 (stereo not drawn) [Compound 124] = > 1000 nM
3) Cc1ncsc1-c1ccc(CNC(=O)[C@@H]2C[C@@H](O)CN2C(=O)[C@@H](NC(=O)CCN2CCC(C(=O)NCc3ccc(CCOc4cc(-c5ccccc5O)nnc4N)cc3)CC2)C(C)(C)C)cc1 [Compound 180] = > 1000 nM

----------
molecular target: HiBiT-BRM (Homo sapiens); construct: expressed in transfected cells; assay: HiBiT-BRM cell-based degradation assay (Nano-Glo HiBiT Lytic Detection); settings: HeLa cells expressing HiBiT-BRM, 24 h; read-out: BRM HiBit Degradation IC50
Where a name gives a salt, the structure may show the parent alone.
Measured Attribute: DC50

1) Nc1nnc(-c2ccccc2O)cc1OCCc1ccc(CNC(=O)CCCCNc2cccc3nnn(C4CCC(=O)NC4=O)c(=O)c23)cc1 (stereo not drawn) [Compound 1] = > 0.1 µM
2) Nc1nnc(-c2ccccc2O)cc1OCCc1ccc(CNC(=O)CCCCNc2cccc3c2CN(C2CCC(=O)NC2=O)C3=O)cc1 (stereo not drawn) [Compound 2] = > 1 µM
3) Nc1nnc(-c2ccccc2O)cc1OCCc1ccc(CNCCOc2cccc3c2C(=O)N(C2CCC(=O)NC2=O)C3=O)cc1 (stereo not drawn) [Compound 115] = > 1 µM
4) Cc1ncsc1-c1ccc(CNC(=O)[C@@H]2C[C@@H](O)CN2C(=O)[C@@H](NC(=O)COCCOCCNC(=O)CN2CCN(c3cc(-c4ccccc4O)nnc3N)CC2)C(C)(C)C)cc1 [Compound 100] = > 1 µM
5) Nc1nnc(-c2ccccc2O)cc1OCCc1ccc(CNC(=O)CCCCNc2cccc3c2C(=O)N(C2CCC(=O)NC2=O)C3)cc1 (stereo not drawn) [Compound 155] = > 0.1 µM
6) CN(CCNC(=O)COc1cccc2c1C(=O)N(C1CCC(=O)NC1=O)C2=O)CCNC(=O)CN1CCN(c2cc(-c3ccccc3O)nnc2N)CC1 (stereo not drawn) [Compound 104] = > 1 µM
7) CN(CCNC(=O)CN1CCN(c2cc(-c3ccccc3O)nnc2N)CC1)CCNc1cccc2c1C(=O)N(C1CCC(=O)NC1=O)C2=O (stereo not drawn) [Compound 96] = > 1 µM
8) Cc1ncsc1-c1ccc(CNC(=O)[C@@H]2C[C@@H](O)CN2C(=O)[C@@H](NC(=O)CCCCCCCCCCCC(=O)NCc2ccc(CCOc3cc(-c4ccccc4O)nnc3N)cc2)C(C)(C)C)cc1 [Compound 31] = > 0.01 µM
9) CN(CCCCCOc1cccc2c1C(=O)N(C1CCC(=O)NC1=O)C2=O)Cc1ccc(CCNc2cc(-c3ccccc3O)nnc2N)cc1 (stereo not drawn) [Compound 150, formic acid salt] = > 1 µM
10) Nc1nnc(-c2ccccc2O)cc1OCCc1ccc(CNC(=O)CCOCCOCCNc2cccc3c2C(=O)N(C2CCC(=O)NC2=O)C3=O)cc1 (stereo not drawn) [Compound 74] = > 1 µM
11) Nc1nnc(-c2ccccc2O)cc1OCCc1ccc(C(=O)N2CCC(C3CCN(C(=O)COc4cccc5c4C(=O)N(C4CCC(=O)NC4=O)C5=O)CC3)CC2)cc1 (stereo not drawn) [Compound 49] = > 1 µM
12) Cc1ncsc1-c1ccc(CNC(=O)[C@@H]2C[C@@H](O)CN2C(=O)[C@@H](NC(=O)CCN2CCC3(CC2)CC(C(=O)NCc2ccc(CCOc4cc(-c5ccccc5O)nnc4N)cc2)C3)C(C)(C)C)cc1 [Compound 186] = > 1 µM

----------
molecular target: HiBiT-BRM (Homo sapiens, UniProt P51531); construct: expressed in transfected cells; assay: HiBiT-BRM cell-based degradation assay (Nano-Glo HiBiT Lytic Detection); conditions: HeLa cells expressing HiBiT-BRM, 24 h; read-out: BRM HiBit Degradation IC50
Sequence (P51531 whole entry): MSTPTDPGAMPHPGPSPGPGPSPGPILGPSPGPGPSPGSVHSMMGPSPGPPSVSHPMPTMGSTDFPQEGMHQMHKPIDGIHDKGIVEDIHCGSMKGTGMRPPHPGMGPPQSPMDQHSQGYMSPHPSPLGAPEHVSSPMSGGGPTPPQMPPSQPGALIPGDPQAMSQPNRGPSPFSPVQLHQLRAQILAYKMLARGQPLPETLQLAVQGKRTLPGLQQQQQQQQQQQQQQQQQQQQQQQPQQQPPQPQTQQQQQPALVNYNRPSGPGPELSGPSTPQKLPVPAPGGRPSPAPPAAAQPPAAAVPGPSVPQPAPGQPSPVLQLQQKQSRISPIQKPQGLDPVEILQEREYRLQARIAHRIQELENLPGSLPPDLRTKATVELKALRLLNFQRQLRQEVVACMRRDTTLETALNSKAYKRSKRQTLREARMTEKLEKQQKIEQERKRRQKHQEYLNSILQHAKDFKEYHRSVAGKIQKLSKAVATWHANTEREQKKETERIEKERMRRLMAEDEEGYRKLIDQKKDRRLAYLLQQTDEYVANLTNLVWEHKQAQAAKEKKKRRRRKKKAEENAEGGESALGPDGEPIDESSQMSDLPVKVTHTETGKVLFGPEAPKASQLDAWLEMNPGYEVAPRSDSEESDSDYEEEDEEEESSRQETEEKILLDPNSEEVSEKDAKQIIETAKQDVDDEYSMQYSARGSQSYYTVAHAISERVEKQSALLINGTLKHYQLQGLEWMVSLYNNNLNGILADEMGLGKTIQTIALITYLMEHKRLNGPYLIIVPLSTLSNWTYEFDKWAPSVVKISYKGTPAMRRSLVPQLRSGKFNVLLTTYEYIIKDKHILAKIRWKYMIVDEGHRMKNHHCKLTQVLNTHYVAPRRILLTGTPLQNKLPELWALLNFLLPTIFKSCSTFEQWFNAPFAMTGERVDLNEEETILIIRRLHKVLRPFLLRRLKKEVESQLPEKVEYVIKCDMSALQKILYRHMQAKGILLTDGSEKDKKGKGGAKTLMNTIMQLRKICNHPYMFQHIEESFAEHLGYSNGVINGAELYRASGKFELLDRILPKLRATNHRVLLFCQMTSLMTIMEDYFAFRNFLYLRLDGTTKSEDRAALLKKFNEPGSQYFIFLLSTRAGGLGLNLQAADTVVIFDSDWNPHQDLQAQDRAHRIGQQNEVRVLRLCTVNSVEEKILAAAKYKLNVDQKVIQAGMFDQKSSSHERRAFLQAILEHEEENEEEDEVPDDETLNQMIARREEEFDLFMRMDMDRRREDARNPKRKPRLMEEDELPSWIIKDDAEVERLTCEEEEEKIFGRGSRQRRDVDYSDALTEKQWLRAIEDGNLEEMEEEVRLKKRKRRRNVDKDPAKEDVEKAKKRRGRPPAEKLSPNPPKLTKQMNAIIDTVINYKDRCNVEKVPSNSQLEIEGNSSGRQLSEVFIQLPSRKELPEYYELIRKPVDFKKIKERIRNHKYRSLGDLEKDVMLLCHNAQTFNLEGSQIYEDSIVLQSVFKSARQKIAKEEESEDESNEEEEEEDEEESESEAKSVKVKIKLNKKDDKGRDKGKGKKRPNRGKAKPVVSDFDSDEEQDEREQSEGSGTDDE
Measured Attribute: DC50

1) Cc1ncsc1-c1ccc([C@H](C)NC(=O)[C@@H]2C[C@@H](O)CN2C(=O)[C@@H](NC(=O)CCCCN2CCN(CCC(=O)NCc3ccc(CCOc4cc(-c5ccccc5O)nnc4N)cc3)CC2)C(C)(C)C)cc1 [Compound 262] = > 1000 nM
2) Cc1ncsc1-c1ccc(CNC(=O)[C@@H]2C[C@@H](O)CN2C(=O)[C@@H](NC(=O)CCNCc2ccc(CCOc3cc(-c4ccccc4O)nnc3N)cc2)C(C)(C)C)cc1 [Compound 187] = > 1000 nM
3) Cc1nc2cccc(NCCOCCOCCNC(=O)c3ccc(CCOc4cc(-c5ccccc5O)nnc4N)cc3)c2c(=O)n1C1CCC(=O)NC1=O (centres unmarked) [Compound 48] = > 1000 nM
4) Nc1nnc(-c2ccccc2O)cc1N1CCN(CC(=O)N2CC(COc3cccc4c3C(=O)N(C3CCC(=O)NC3=O)C4=O)C2)CC1 (centres unmarked) [Compound 76] = > 1000 nM
5) Cc1ncsc1-c1ccc([C@H](C)NC(=O)[C@@H]2C[C@@H](O)CN2C(=O)[C@@H](c2cc(OCCN3[C@@H]4CC[C@H]3CN(C(=O)c3ccc(CCOc5cc(-c6ccccc6O)nnc5N)cc3)C4)no2)C(C)C)cc1 [Compound 221] = > 10 nM

----------
target: HiBiT-BRM (Homo sapiens, UniProt P51531); construct: expressed in transfected cells; experiment: HiBiT-BRM cell-based degradation assay (Nano-Glo HiBiT Lytic Detection); conditions: HeLa cells expressing HiBiT-BRM, 24 h; read-out: BRM HiBit Degradation IC50
Measured Attribute: DC50

1) Cc1nc2cccc(NCCCCCCCCNC(=O)c3ccc(CCOc4cc(-c5ccccc5O)nnc4N)cc3)c2c(=O)n1C1CCC(=O)NC1=O (stereo not drawn) [Compound 45] = > 1 µM
2) Cc1ncsc1-c1ccc(CNC(=O)[C@@H]2C[C@@H](O)CN2C(=O)[C@@H](NC(=O)CCCCCCCCCNC(=O)c2ccc(CCNc3cc(-c4ccccc4O)nnc3N)cc2)C(C)(C)C)cc1 [Compound 134] = > 0.1 µM
3) CN(CCNC(=O)c1ccc(CCOc2cc(-c3ccccc3O)nnc2N)cc1)CCNc1cccc2c1C(=O)N(C1CCC(=O)NC1=O)C2=O (stereo not drawn) [Compound 61] = > 0.1 µM
4) Cc1ncsc1-c1ccc(CNC(=O)[C@@H]2C[C@@H](O)CN2C(=O)[C@@H](NC(=O)CCCCCCCCCCCCCCCC(=O)NCc2ccc(CCOc3cc(-c4ccccc4O)nnc3N)cc2)C(C)(C)C)cc1 [Compound 32] = > 0.01 µM
5) Nc1nnc(-c2ccccc2O)cc1OCCc1ccc(CNCCCCOc2cccc3c2C(=O)N(C2CCC(=O)NC2=O)C3=O)cc1 (stereo not drawn) [Compound 121] = > 1 µM
6) Nc1nnc(-c2cccc(Cl)c2O)cc1OCCc1ccc(CNCCCCCOc2cccc3c2C(=O)N(C2CCC(=O)NC2=O)C3=O)cc1 (stereo not drawn) [Compound 124] = > 1 µM
